# Test system: E. coli ATCC 25922 (HAV#006)
# Test Protocol: MIC by broth microdilution (CLSI)
# Assay type: cell-based
# Study Conditions: Escherichia coli, ATCC25922, 24 h, read-out: MIC E. coli ATCC 25922
Counter-ions that a name gives are not always drawn.
Would you mind telling me the reported log10(MIC) of each entry?
// units: µg/mL (pre-log); metric: MIC; scale: log10

Request: Which log10(MIC) value is on record for CC(C)C[C@@H]1CCO[C@@H]2[C@H](CN[C@@H]2C(=O)N[C@H]2[C@H]3O[C@H](S[C@H](c4cn(-c5ccc(F)cc5F)nn4)C/C=C\[C@H]2C)[C@H](O)[C@@H](O)[C@H]3O)C1 [FSA1609052, formate salt] ?
Result: 0.30

Request: Form field: reported log10(MIC) of CC(C)C[C@@H]1CCO[C@@H]2[C@H](CN[C@@H]2C(=O)N[C@H]2C3OC(SCC/C=C\[C@H]2C)C(O)C(O)C3O)C1 (single isomer, unassigned) [FSA1507066, formate]
Result: 0.60

Request: For CC(C)C[C@@H]1CCO[C@@H]2[C@H](CN[C@@H]2C(=O)N[C@@H]2C/C=C\CCS[C@H]3O[C@H]2[C@H](O)[C@H](O)[C@H]3O)C1 [FSA1507013, formate] , what is its reported log10(MIC)?
Result: 0.30

Request: Which log10(MIC) value is on record for CC(C)C[C@@H]1CCO[C@@H]2[C@H](CN[C@@H]2C(=O)N[C@@H]2C/C=C\C[C@@H](F)CS[C@H]3O[C@H]2[C@H](O)[C@H](O)[C@H]3O)C1 [FSA1607022, formate salt] ?
Result: 0.30

Request: Which log10(MIC) is reported for this compound? CC(C)C[C@@H]1CCO[C@@H]2[C@H](CN[C@@H]2C(=O)N[C@H]2[C@H]3O[C@H](SC[C@H](F)C/C=C\[C@H]2C)[C@H](O)[C@@H](O)[C@H]3O)C1 [FSA1609033, formate salt]
Result: 0.00

Request: What does the record list as log10(MIC) for CC(C)C[C@@H]1CCO[C@@H]2[C@H](CN[C@@H]2C(=O)N[C@@H]2C/C=C\C[C@H](CN)S[C@H]3O[C@H]2[C@H](O)[C@H](O)[C@H]3O)C1 [FSA1608082, hydrochloride salt] ?
Result: 1.51

Request: Quick one: log10(MIC) for CC(C)C[C@@H]1CCO[C@@H]2[C@H](CN[C@@H]2C(=O)N[C@@H]2C/C=C\C[C@H](CNC(=O)c3ccc(F)cc3)S[C@H]3O[C@H]2[C@H](O)[C@H](O)[C@H]3O)C1 [FSA1608089, formate salt] ?
Result: 1.20

Request: Reported log10(MIC), compound CC(C)C[C@@H]1CCO[C@@H]2[C@H](CN[C@@H]2C(=O)N[C@H]2[C@H]3O[C@H](S[C@H](c4cn(-c5ccc(F)cc5)nn4)C/C=C\[C@H]2C)[C@H](O)[C@@H](O)[C@H]3O)C1 [FSA1609037, formate salt] : ____
Result: 0.00

Request: Given C#C[C@@H]1C/C=C\C[C@@H](NC(=O)[C@H]2NC[C@@H]3C[C@H](CC(C)C)CCO[C@H]32)[C@H]2O[C@H](S1)[C@H](O)[C@@H](O)[C@H]2O [FSA1607077, formate salt] , state its recorded log10(MIC).
Result: 0.60

Request: Recorded log10(MIC) of CC(C)C[C@@H]1CCO[C@@H]2[C@H](CN[C@@H]2C(=O)N[C@@H]2C/C=C\C[C@@H](c3cn(-c4ccc(F)cc4)nn3)S[C@H]3O[C@H]2[C@H](O)[C@H](O)[C@H]3O)C1 [FSA1608021, formate salt] , please.
Result: 0.00

Request: Any idea what its log10(MIC) is? The compound is CC(C)C[C@@H]1CCO[C@@H]2[C@H](CN[C@@H]2C(=O)N[C@H]2[C@H]3O[C@H](S[C@H](c4cn(-c5cccc(Cl)c5)nn4)C/C=C\[C@H]2C)[C@H](O)[C@@H](O)[C@H]3O)C1 [FSA1609015, formate salt]
Result: 0.90

Request: State the recorded log10(MIC) for this entry: CC(=O)OC[C@@H]1C/C=C\C[C@@H](NC(=O)[C@H]2NC[C@@H]3C[C@H](CC(C)C)CCO[C@H]32)[C@H]2O[C@H](S1)[C@H](O)[C@@H](O)[C@H]2O [FSA1607032, acetate formate salt]
Result: 0.90

Data credit: patent US20250270246A1
